Target: human Factor Xa (Homo sapiens)
Sequence (P00742 235-488 limits assumed): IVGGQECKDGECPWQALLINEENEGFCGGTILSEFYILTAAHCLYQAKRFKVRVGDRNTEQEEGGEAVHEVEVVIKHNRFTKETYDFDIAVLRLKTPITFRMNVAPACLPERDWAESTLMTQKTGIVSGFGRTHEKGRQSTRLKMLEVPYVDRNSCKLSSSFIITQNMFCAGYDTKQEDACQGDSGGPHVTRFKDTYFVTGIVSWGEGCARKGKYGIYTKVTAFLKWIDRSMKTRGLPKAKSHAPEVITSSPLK
Sequence (P00742 41-179 partner limits assumed): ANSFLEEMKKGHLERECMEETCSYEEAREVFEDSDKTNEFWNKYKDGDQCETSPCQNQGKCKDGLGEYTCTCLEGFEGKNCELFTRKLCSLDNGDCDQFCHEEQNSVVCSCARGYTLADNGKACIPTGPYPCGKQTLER
Assay: In vitro assay for inhibition of Factor Xa (1), chromogenic assay
Format: biochemical
Details: substrate N-α-benzyloxycarbonyl-D-Arg-Gly-Arg-p-nitroanilide 200 μM, Ki calculated from IC50
Each item that follows carries a reported Ki.

These solved cases illustrate the format of a correct answer.
{"columns": ["cpd-smiles", "measured-property", "result"],
 "data": [
  ["CC(C)(C)c1ccc(N2CC[C@H](NS(=O)(=O)c3ccc4cc(Cl)ccc4c3)C2=O)cc1", "Ki", "< 200 nM"],
  ["CS(=O)(=O)c1ccccc1-c1ccc(N2CC[C@H](NS(=O)(=O)c3cc4cc(Cl)ccc4o3)C2=O)nc1", "Ki", "< 1000 nM"],
  ["O=C1[C@@H](NS(=O)(=O)/C=C/c2ccc(Cl)s2)CCN1c1ccc(I)cn1", "Ki", "< 1000 nM"],
  ["CNS(=O)(=O)c1ccccc1-c1ccc(N2CC[C@H](NS(=O)(=O)/C=C/c3ccc(Cl)s3)C2=O)c(F)c1", "Ki", "< 10 nM"],
  ["O=C1[C@@H](NS(=O)(=O)c2ccc3cc(Cl)ccc3c2)CCN1c1ccc(-c2ccncc2Cl)cc1F", "Ki", "< 10 nM"],
  ["CN(C)c1ccc(N2CC[C@H](NS(=O)(=O)c3ccc4cc(Cl)ccc4c3)C2=O)cc1", "Ki", "< 20 nM"]
]}

Attention now turns to another entry.
Lab note: measured Ki of `CS(=O)(=O)Nc1ccccc1-c1ccc(N2CC[C@H](NS(=O)(=O)/C=C/c3ccc(Cl)s3)C2=O)nc1` was < 20 nM
